assaySystem: UniProt P43119
Sequence (P43119 whole entry): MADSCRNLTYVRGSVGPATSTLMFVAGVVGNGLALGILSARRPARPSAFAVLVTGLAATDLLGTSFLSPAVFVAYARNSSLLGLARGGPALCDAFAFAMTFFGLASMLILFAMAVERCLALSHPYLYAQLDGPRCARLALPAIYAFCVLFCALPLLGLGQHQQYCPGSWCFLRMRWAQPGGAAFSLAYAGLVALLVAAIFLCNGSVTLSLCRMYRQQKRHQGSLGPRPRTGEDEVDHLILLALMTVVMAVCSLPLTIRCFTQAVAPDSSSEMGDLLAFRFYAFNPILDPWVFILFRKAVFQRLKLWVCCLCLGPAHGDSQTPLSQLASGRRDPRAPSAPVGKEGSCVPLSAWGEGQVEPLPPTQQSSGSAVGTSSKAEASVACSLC
test: Other receptors functional assay, hIP
experimentalEndpoint: EC50

CCCCC[C@H](O)CCN1C(=O)CC[C@@H]1COCc1ccc(C(=O)NS(C)(=O)=O)s1 [Example 2]    > 10 µM
CCCCC[C@H](O)CCN1C(=O)CC[C@@H]1COCc1ccc(C(=O)NCC)s1 [Example 3]    > 10 µM

Would you kindly look at the next entry?
Tell me the measured EC50 of CCCC1(C(O)CCCN2C(=O)CC[C@@H]2COCc2ccc(C(=O)O)s2)CCC1 (mixture of isomers) [Example 4] , please.
> 10 µM

----------
assaySystem: hTP (Homo sapiens)
Sequence (P21731 whole entry): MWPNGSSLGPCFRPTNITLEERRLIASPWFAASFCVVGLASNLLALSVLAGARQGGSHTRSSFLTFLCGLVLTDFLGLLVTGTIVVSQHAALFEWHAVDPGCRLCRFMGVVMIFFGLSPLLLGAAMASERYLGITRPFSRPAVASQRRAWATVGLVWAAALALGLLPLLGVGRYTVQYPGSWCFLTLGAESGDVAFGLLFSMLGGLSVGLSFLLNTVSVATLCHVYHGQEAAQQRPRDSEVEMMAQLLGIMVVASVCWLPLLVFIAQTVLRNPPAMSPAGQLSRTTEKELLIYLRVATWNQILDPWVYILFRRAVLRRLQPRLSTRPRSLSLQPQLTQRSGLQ
test: Other receptors functional assay, hTP
// EC50 lookup, one value per entry

CCCCC[C@H](O)CCN1C(=O)CC[C@@H]1COCc1ccc(C(=O)NS(C)(=O)=O)s1    > 10 µM
CCCCC[C@H](O)CCN1C(=O)CC[C@@H]1COCc1ccc(C(=O)O)s1    4.89 µM
CCCC1(C(O)CCCN2C(=O)CC[C@@H]2COCc2ccc(C(=O)O)s2)CCC1 (mixture of isomers)    > 10 µM

// below: EC50 requested for another compound
Look up EC50 for this compound: `CCCCC[C@H](O)CCN1C(=O)CC[C@@H]1COCc1ccc(C(=O)NCC)s1`
> 10 µM

----------
assaySystem: EP2 (Homo sapiens, UniProt P43116)
Sequence (P43116 whole entry): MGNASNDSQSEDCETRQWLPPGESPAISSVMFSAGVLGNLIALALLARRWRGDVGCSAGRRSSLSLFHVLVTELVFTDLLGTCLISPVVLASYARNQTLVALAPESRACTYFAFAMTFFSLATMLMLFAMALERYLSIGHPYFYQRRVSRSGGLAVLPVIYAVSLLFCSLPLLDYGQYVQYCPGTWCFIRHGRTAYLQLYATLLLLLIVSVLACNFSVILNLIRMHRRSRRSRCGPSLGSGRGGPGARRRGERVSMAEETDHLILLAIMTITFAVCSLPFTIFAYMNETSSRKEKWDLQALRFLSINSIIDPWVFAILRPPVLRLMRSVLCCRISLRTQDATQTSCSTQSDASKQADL
test: EP2 flipr assay
Assay type: cell-based
From the text: U.S. patent application Ser. No. 11/553,143, filed on Oct. 26, 2006, incorporated by reference herein, describes the methods used to obtain the in vitro data in the table below.
experimentalEndpoint: pEC50
Answer as the number alone; pEC50 is minus log10 of concentration in mol/L.

Quick check: pEC50 of `CCCCC[C@H](O)CCN1C(=O)CC[C@@H]1COCc1ccc(C(=O)O)s1` ?
5.80

----------
Reported pEC50 values for the following compounds.
assaySystem: EP2 (Homo sapiens)
test: EP2 cAMP assay
Assay type: cell-based
Scale: pEC50 equals -log10([C]), with [C] in mol/L.

CCCCC[C@H](O)CCN1C(=O)CC[C@@H]1COCc1ccc(C(=O)O)s1 [Example 1]    7.72

API: the following record is the query input.
What does the record list as pEC50 for CCCC1(C(O)CCCN2C(=O)CC[C@@H]2COCc2ccc(C(=O)O)s2)CCC1 (mixture of isomers) [Example 4] ?
7.70

----------
Form field: EC50 (one value per entry).
assaySystem: hEP3A (Homo sapiens)
Sequence (P43115 whole entry): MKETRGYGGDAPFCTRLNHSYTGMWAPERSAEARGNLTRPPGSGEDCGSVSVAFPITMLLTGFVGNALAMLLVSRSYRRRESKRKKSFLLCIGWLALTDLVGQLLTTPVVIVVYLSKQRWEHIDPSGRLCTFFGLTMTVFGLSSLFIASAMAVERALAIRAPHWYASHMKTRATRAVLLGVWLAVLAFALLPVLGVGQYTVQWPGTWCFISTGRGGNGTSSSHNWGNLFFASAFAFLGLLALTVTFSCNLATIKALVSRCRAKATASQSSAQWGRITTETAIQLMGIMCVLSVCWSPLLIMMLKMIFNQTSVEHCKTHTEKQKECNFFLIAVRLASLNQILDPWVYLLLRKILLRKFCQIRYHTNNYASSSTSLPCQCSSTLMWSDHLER
test: Other receptors functional assay, hEP3A
Respond numerically; units are nM and should not be typed.

I'd like to know its EC50. The compound in question is CCCCC[C@H](O)CCN1C(=O)CC[C@@H]1COCc1ccc(C(=O)O)s1 [Example 1]
2220

# input compound: CCCCC[C@H](O)CCN1C(=O)CC[C@@H]1COCc1ccc(C(=O)NS(C)(=O)=O)s1 [Example 2] ; wanted: its EC50
2030

----------
Measured EC50, listed per entry for reference.
assaySystem: hDP (Homo sapiens)
Sequence (Q13258 whole entry): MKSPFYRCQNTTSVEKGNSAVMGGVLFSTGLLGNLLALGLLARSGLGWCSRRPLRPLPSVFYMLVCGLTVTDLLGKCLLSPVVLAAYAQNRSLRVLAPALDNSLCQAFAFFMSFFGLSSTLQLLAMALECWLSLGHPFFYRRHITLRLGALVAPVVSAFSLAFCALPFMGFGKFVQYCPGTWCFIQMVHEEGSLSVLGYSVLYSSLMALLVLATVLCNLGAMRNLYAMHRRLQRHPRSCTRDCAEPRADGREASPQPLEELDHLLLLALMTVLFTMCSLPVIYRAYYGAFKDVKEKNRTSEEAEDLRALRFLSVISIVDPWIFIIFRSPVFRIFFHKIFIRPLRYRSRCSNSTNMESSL
test: Other receptors functional assay, hDP

For orientation, consider the following solved cases.
CCCC1(C(O)CCCN2C(=O)CC[C@@H]2COCc2ccc(C(=O)O)s2)CCC1 (mixture of isomers)    213 nM
CCCCC[C@H](O)CCN1C(=O)CC[C@@H]1COCc1ccc(C(=O)NCC)s1    > 10000 nM
CCCCC[C@H](O)CCN1C(=O)CC[C@@H]1COCc1ccc(C(=O)NS(C)(=O)=O)s1    194 nM

Moving on to the next molecule.
// query EC50 value for entry `CCCCC[C@H](O)CCN1C(=O)CC[C@@H]1COCc1ccc(C(=O)O)s1`
6.8 nM
